tested on: Peripheral Blood Mononuclear Cells; assay: PBMC cytokine release by Cytometric BeadArray, Activation format (peptide applied to PBMCs alone); format: cell-based, human; parameters: key: X = a hit with significant activation or inhibition of relevant cytokine release; conditions: 24 hours, supernatant CBA
ASSAY_METRIC: Activation by Analyte: IP-10

Please review the entries below; each comes with its answer.
[
  {
    "MOLECULE": "SEQ ID NO: 3169: target protein of the Sequence Listing, secreted peptide (peptide, listed as Homo sapiens) MCHKGWHGPGVPHHVAFTPCKARLRPATQCQAHSSPRRKMVQAGSIPLAAASGRLCLTHAGWWRGAS",
    "READING": "X"
  },
  {
    "MOLECULE": "SEQ ID NO: 5537: target protein of the Sequence Listing, secreted peptide (peptide, listed as Homo sapiens) MQRLPAAFFRSFAAQGLGESVHINTPTSLSLRGRPFISSSGPGARARVTCAPCLHAARILCCFWRGLHR",
    "READING": "X"
  },
  {
    "MOLECULE": "SEQ ID NO: 5631: target protein of the Sequence Listing, secreted peptide (peptide, listed as Homo sapiens) MMAQKSKFRVLFMSDPHGTAMPLTSAILESSRASLAAKQEDKCFTDIRNLKWKHFLEHTKQPP",
    "READING": "X"
  },
  {
    "MOLECULE": "SEQ ID NO: 4566: target protein of the Sequence Listing, secreted peptide (peptide, listed as Homo sapiens) LRPRSAAFAPRYTRLVMRRSSRSFRLQCTGFPSSSAQSISAHLSNSMPSSLLTISRCPGMFAVRCPL",
    "READING": "X"
  }
]

For the next question, use this molecule.
Query block: Field request: Activation by Analyte: IP-10 | item: SEQ ID NO: 6517: target protein of the Sequence Listing, secreted peptide (peptide, listed as Homo sapiens) VALSLLTSQGRQRRAGPSTAFAALPATVATFSAMTESESLRTSRHADTALARVRRGAKFRGQARTRYCARARSHRFTPPSGA
Result block: X
